Experiment: soluble on expression in E. coli; label from the status in PepcDB or PDB records
MEASUREMENT_KIND: soluble on expression in E. coli

• MKKLLSIVLGLALSAPVLANEVSFEQYVERLKQQAREEGISERILNEAFRDVEYKPRSVVADKNQPEKKLTLDEYIPRAVPEWKVKQAQSLYEKHYTELQRIGKQYGVQPRFIVALWGVESNFGAFTGNFRVIDALSTLAYEGRREEFFRKETMAALQILEQGHIAPEAMKGSWAGAMGQCQFMPSSFLNFAADGNGDGKKDIWGTRSDVFASTANYLSQSGWDDKYTWGRQVKIPKGFDHALEGRQPEKGKTLQEWSKLGVTRYDGKPLPALSDDIKAWLIMPDDEAGRIYLVYNNYNVLMKWNRSHYFALAVSHLADRIAF = not soluble
• LEILRKNRINEPCIKLNTHSIANKIYATENYIIGIPTDHPDEISDAFTKSVAALLAKSNGIRTPELICFDDSYTIKALDKKLHKIGKAEDGACNLILDMLRLLRLAKDLF = not soluble
